Where do the numbers come from? From patent US11013780B2.

- Test Protocol: Single dose PK, phase 1, healthy Japanese men
- Type: in vivo, human
- Condition Parameters: male, human, plasma, sc, 0.25 mg, single 2-hour SC INF 0.25 mg (plasma N = 1)
- Method: Thirty-seven healthy Japanese male subjects aged 50 to 74 years were enrolled into nine cohorts. Subjects enrolled in the first […] cohorts received 0.001, 0.004, 0.01, 0.04, 0.1, 0.25 or 0.5 mg of API-MA or placebo by single SC bolus. In the 0.001 mg cohort, 3 subjects received API-MA and two received placebo. In the remaining cohorts, 3 subjects received API-MA and one received placebo. […]
Where a SMILES comes first, the peptide text is derived from it. [ ]: non-standard residue; d: D form. Arg(Me) = CNC(=N)NCCC[C@H](N)C(=O)O; Hyp = O=C(O)[C@@H]1C[C@@H](O)CN1; azaGly = NNC(=O)O
Readout: Cmax (ng/mL)
Numbers only; they are read as ng/mL.

Query: What value of measured Cmax is listed for CC(=O)O.CNC(=N)NCCC[C@H](NC(=O)[C@H](CC(C)C)NC(=O)NNC(=O)[C@H](Cc1ccccc1)NC(=O)[C@@H](NC(=O)[C@H](CC(N)=O)NC(=O)[C@@H]1C[C@@H](O)CN1C(=O)[C@@H](Cc1ccc(O)cc1)NC(C)=O)[C@@H](C)O)C(=O)N[C@@H](Cc1c[nH]c2ccccc12)C(N)=O [API-MA] (Ac-[dY][Hyp]NTF[azaGly]L[Arg(Me)]W-NH2) ?
Result: 4.02

###

- Test Protocol: Pharmacokinetics in monkeys after SC and IV administration
- Condition Parameters: monkey, in vivo, sc, 1 mg/kg, T½ β
Where a SMILES comes first, the peptide text is derived from it. [ ]: non-standard residue; d: D form. Arg(Me) = CNC(=N)NCCC[C@H](N)C(=O)O; Hyp = O=C(O)[C@@H]1C[C@@H](O)CN1; azaGly = NNC(=O)O
Readout: half-life
Value and unit, in that order.

Query: What value of measured half-life is listed for CNC(=N)NCCC[C@H](NC(=O)[C@H](CC(C)C)NC(=O)NNC(=O)[C@H](Cc1ccccc1)NC(=O)[C@@H](NC(=O)[C@H](CC(N)=O)NC(=O)[C@@H]1C[C@@H](O)CN1C(=O)[C@@H](Cc1ccc(O)cc1)NC(C)=O)[C@@H](C)O)C(=O)N[C@@H](Cc1c[nH]c2ccccc12)C(N)=O [Compound 1] (Ac-[dY][Hyp]NTF[azaGly]L[Arg(Me)]W-NH2) ?
Result: 1.4 h

###

- Test Protocol: Multiple-dose PK, 2-hour SC infusion once daily for 14 days, Japanese prostate cancer patients
- Format: in vivo, human
- Condition Parameters: male, human, in vivo, sc, 0.5 mg/day, Japanese prostate cancer patients, 2-hour SC infusion 0.5 mg/day, Day 1, mean; read-out: Vz/F
Where a SMILES comes first, the peptide text is derived from it. [ ]: non-standard residue; d: D form. Arg(Me) = CNC(=N)NCCC[C@H](N)C(=O)O; Hyp = O=C(O)[C@@H]1C[C@@H](O)CN1; azaGly = NNC(=O)O
Readout: Vd/F (L)
Numbers only; they are read as L.

Query: What value of measured Vd/F is listed for CC(=O)O.CNC(=N)NCCC[C@H](NC(=O)[C@H](CC(C)C)NC(=O)NNC(=O)[C@H](Cc1ccccc1)NC(=O)[C@@H](NC(=O)[C@H](CC(N)=O)NC(=O)[C@@H]1C[C@@H](O)CN1C(=O)[C@@H](Cc1ccc(O)cc1)NC(C)=O)[C@@H](C)O)C(=O)N[C@@H](Cc1c[nH]c2ccccc12)C(N)=O [API-MA] (Ac-[dY][Hyp]NTF[azaGly]L[Arg(Me)]W-NH2) ?
Result: 66.9
